- measured-target: Recombinant Human Poly(ADP-Ribose) Polymerase (PARP), PARP-1 (Homo sapiens (Human))
- assay-context: read-out: PARP-1 (Ki); Table 1; text calls the values EC50s
So basically, if Ki comes in under 0.04 µM it's 1.0, and if it's 0.04 µM or more it's 0.0.

Here are 5 compounds together with their reported answers.
| structure-smiles | class-assignment |
| --- | --- |
| CC(C)(C)C(=O)N1CCN(C(=O)c2cc(Cc3n[nH]c(=O)c4c3NCCC4)ccc2F)CC1 | 1.0 |
| O=C(Nc1cccc(Cc2n[nH]c(=O)c3c2CCCC3)c1)c1ccncc1 | 0.0 |
| COC(=O)c1ncccc1Cc1n[nH]c(=O)c2c1CCCC2 | 0.0 |
| Cc1cccc(O)c1NC(=O)c1cccc(Cc2n[nH]c(=O)c3c2CCCC3)c1 | 0.0 |
| O=C(c1cc(Cc2n[nH]c(=O)c3c2CCCC3)ccc1F)N1CCN(c2cncnc2)CC1 | 1.0 |

(Q) Please let me know if `CC(=O)N1CCN(C(=O)c2cc(Cc3n[nH]c(=O)c4c3CCCC4)ccc2F)CC1` shows Ki below 0.04 µM.
(A) 1.0

(Q) Moving on to the next compound: `O=c1[nH]nc(Cc2cccs2)c2c1CCCC2`
(A) 0.0

(Q) Moving on to the next compound: `Cn1cnc(S(=O)(=O)Nc2cccc(Cc3n[nH]c(=O)c4c3CCCC4)c2)c1`
(A) 0.0

----------
For each record, write down the corresponding Ki.
- measured-target: Recombinant Human Poly(ADP-Ribose) Polymerase (PARP), PARP-1 (Homo sapiens (Human))
- assay-context: read-out: PARP-1 (Ki); Table 1; text calls the values EC50s
Give bare numbers, in nM.

| compound | measured-target | value-unit | Ki |
| --- | --- | --- | --- |
| Cc1cnc(C(=O)Nc2cccc(Cc3n[nH]c(=O)c4c3CCCC4)c2)cn1 | Recombinant Human Poly(ADP-Ribose) Polymerase (PARP), PARP-1 (Homo sapiens (Human)) | nM | 5 |
| CCOCCN1CCN(C(=O)c2cc(Cc3n[nH]c(=O)c4c3NCCC4)ccc2F)CC1 | Recombinant Human Poly(ADP-Ribose) Polymerase (PARP), PARP-1 (Homo sapiens (Human)) | nM | 14 |
| CN(C)CCNC(=O)c1cccc(Cc2n[nH]c(=O)c3c2CCCC3)c1 | Recombinant Human Poly(ADP-Ribose) Polymerase (PARP), PARP-1 (Homo sapiens (Human)) | nM | 95 |
| CC(C)N1CCN(C(=O)c2cc(Cc3n[nH]c(=O)c4c3CCCC4)ccc2F)CC1 | Recombinant Human Poly(ADP-Ribose) Polymerase (PARP), PARP-1 (Homo sapiens (Human)) | nM | 2 |
| CC(C)NC(=O)c1cccc(Cc2n[nH]c(=O)c3c2CCCC3)n1 | Recombinant Human Poly(ADP-Ribose) Polymerase (PARP), PARP-1 (Homo sapiens (Human)) | nM | 691 |

Here are 3 compounds. What values of Ki were reported for them?
1. CC(Cc1n[nH]c(=O)c2c1CCCC2)c1ccc(F)c(-c2cccc(C(N)=O)c2)c1 (centres unmarked)
2. CN(C(=O)c1cc(Cc2n[nH]c(=O)c3c2NCCC3)ccc1F)C1CCN(C(=O)c2ccccn2)CC1
3. O=C1CCN1c1ccc(Cc2n[nH]c(=O)c3c2CCCC3)cn1

(A)
1: 912; 2: 3; 3: 725

----------
- measured-target: Recombinant Human Poly(ADP-Ribose) Polymerase (PARP), PARP-1 (Homo sapiens (Human), UniProt P09874)
- Sequence (P09874 whole entry): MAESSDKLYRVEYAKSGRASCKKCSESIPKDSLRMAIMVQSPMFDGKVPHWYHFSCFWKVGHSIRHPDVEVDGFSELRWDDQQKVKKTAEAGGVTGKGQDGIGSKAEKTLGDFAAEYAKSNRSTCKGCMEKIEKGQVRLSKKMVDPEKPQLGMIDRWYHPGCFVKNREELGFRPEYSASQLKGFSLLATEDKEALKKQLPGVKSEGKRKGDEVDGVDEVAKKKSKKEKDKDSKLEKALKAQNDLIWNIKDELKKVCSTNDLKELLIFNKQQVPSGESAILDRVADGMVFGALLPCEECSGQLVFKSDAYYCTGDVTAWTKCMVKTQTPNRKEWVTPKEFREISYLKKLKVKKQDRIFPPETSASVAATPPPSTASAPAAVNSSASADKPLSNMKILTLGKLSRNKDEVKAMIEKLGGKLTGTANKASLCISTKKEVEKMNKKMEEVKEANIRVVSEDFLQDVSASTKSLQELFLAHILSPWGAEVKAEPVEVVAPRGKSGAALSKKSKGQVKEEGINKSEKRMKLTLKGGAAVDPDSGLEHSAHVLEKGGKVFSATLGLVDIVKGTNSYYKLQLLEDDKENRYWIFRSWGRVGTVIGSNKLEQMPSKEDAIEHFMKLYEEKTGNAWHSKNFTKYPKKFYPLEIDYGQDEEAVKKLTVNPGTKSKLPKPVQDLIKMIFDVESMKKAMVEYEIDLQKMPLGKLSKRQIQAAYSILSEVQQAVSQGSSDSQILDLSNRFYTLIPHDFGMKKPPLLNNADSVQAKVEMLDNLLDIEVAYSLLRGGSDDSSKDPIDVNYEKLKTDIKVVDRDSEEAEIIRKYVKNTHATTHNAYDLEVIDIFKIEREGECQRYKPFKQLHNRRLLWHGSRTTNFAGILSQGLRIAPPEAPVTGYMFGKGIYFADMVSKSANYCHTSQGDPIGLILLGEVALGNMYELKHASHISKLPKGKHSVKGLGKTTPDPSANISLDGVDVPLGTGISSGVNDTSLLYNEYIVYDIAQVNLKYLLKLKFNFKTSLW
- assay-context: read-out: PARP-1 (Ki); Table 1; text calls the values EC50s
property-label: Ki (nM)
Numbers only, in nM.

Look over these answered cases.
| structure-smiles | Ki / nM |
| --- | --- |
| O=C(NCCCN1CCOCC1)c1cccc(Cc2n[nH]c(=O)c3c2CCCC3)c1 | 25 |
| O=C(NC1CCN(C(=O)c2ccncc2)CC1)c1cc(Cc2n[nH]c(=O)c3c2NCCC3)ccc1F | 14 |
| O=C(Nc1ccc2c(c1)OCCO2)c1cccc(Cc2n[nH]c(=O)c3c2CCCC3)c1 | 66 |
| NC(=O)c1cccc(-c2cc(Cc3n[nH]c(=O)c4c3CCCC4)ccc2F)c1 | 19 |
| CC1(C(=O)N2CCCN(C(=O)c3cc(Cc4n[nH]c(=O)c5c4CCCC5)ccc3F)CC2)CC1 | 1.8 |

Here are 8 compounds. What values of Ki were reported for them?
1. CCN(Cc1ccccc1)C(=O)c1cccc(Cc2n[nH]c(=O)c3c2CCCC3)c1
2. O=C(c1cc(Cc2n[nH]c(=O)c3c2CCCC3)ccc1F)N1CCN(c2ncncn2)CC1
3. O=c1[nH]nc(CCc2ccccc2)c2c1CCCC2
4. CCc1ccc(C(=O)Nc2cccc(Cc3n[nH]c(=O)c4c3CCCC4)c2)cc1
5. O=C(NC1CCN(C(=O)c2cccnc2)CC1)c1cc(Cc2n[nH]c(=O)c3c2NCCC3)ccc1F
6. COc1cc(OC)c(NC(=O)c2cccc(Cc3n[nH]c(=O)c4c3CCCC4)c2)cc1Cl
7. COc1ccc(C(=O)N2CCN(C(=O)c3cc(Cc4n[nH]c(=O)c5c4NCCC5)ccc3F)CC2)cc1
8. CCOc1ccc(C(=O)Nc2cccc(Cc3n[nH]c(=O)c4c3CCCC4)c2)cc1

(A)
1: 21; 2: 1.2; 3: 335; 4: 156; 5: 7; 6: 151; 7: 1.1; 8: 98

----------
- measured-target: Recombinant Human Poly(ADP-Ribose) Polymerase (PARP), PARP-1 (Homo sapiens (Human), UniProt P09874)
- assay-context: read-out: PARP-1 (Ki); Table 1; text calls the values EC50s
For each record, write down the corresponding Ki.
Numbers only, in µM.

| molecule | property-label | value-unit | measured-number |
| --- | --- | --- | --- |
| O=C(CCC(=O)c1ccccc1)Nc1cccc(CCc2n[nH]c(=O)c3c2CCCC3)c1 | Ki | µM | 0.204 |
| CC(Cc1n[nH]c(=O)c2c1CCCC2)c1ccc(F)c(-c2cccc(CNS(C)(=O)=O)c2)c1 (centres unmarked) | Ki | µM | 1.44 |
| O=C(Nc1cccc(Cc2n[nH]c(=O)c3c2CCCC3)c1)C1CNC1 | Ki | µM | 0.006 |
| COc1ccccc1N1CCN(C(=O)c2cc(Cc3n[nH]c(=O)c4c3NCCC4)ccc2F)CC1 | Ki | µM | 0.0028 |
| O=C(Nc1cccc(Cc2n[nH]c(=O)c3c2CCCC3)c1)c1ccsc1 | Ki | µM | 0.146 |

Here are 6 molecules. What values of Ki were reported for them?
1. CCc1ccccc1NC(=O)c1cccc(Cc2n[nH]c(=O)c3c2CCCC3)c1
2. O=C(c1cc(Cc2n[nH]c(=O)c3c2CCCC3)ccc1F)N1CCN(c2ccc(F)cc2F)CC1
3. CS(=O)(=O)Nc1cccc(Cc2n[nH]c(=O)c3c2CCCC3)c1
4. CC(C)n1c(C(F)(F)F)nc2cc(C(=O)N3CCN(C(=O)c4cc(Cc5n[nH]c(=O)c6c5CCCC6)ccc4F)CC3)ccc21
5. O=C(Nc1cccc(Cc2n[nH]c(=O)c3c2CCCC3)c1)c1c[nH]c2ccccc12
6. Nc1cccc(CCc2n[nH]c(=O)c3c2CCCC3)c1

(A)
[0.789, 0.005, 0.065, 0.005, 0.086, 0.243]

Here are 3 molecules. What values of Ki were reported for them?
1. CCS(=O)(=O)N1CCN(C(=O)c2cc(Cc3n[nH]c(=O)c4c3CCCC4)ccc2F)CC1
2. O=C(Nc1cccc(Cc2n[nH]c(=O)c3c2CCCC3)c1)c1cc(Br)ccc1Cl
3. CN1CCN(C(=O)c2cccc(Cc3n[nH]c(=O)c4c3CCCC4)c2)CC1

(A)
[0.0011, 0.092, 0.02]

Here are 3 molecules. What values of Ki were reported for them?
1. CC(C)N(Cc1ccccc1)C(=O)c1cccc(Cc2n[nH]c(=O)c3c2CCCC3)c1
2. CN1CC(NC(=O)c2cccc(Cc3n[nH]c(=O)c4c3CCCC4)c2)C1
3. CC(=O)N(C)C1CCN(C(=O)c2cc(Cc3n[nH]c(=O)c4c3NCCC4)ccc2F)C1 (centres unmarked)

(A)
1. 0.068
2. 0.082
3. 0.006

----------
For each record, write down the corresponding pKi.
- measured-target: Recombinant Human Poly(ADP-Ribose) Polymerase (PARP), PARP-1 (Homo sapiens (Human))
- assay-context: read-out: PARP-1 (Ki); Table 1; text calls the values EC50s
Answers are plain numbers, as −log10 of the molar value.

| compound | pKi |
| --- | --- |
| O=C(Nc1cccc(Cc2n[nH]c(=O)c3c2CCCC3)c1)c1ccccc1I | 6.02 |
| O=C(O)CNC(=O)Nc1cc(Cc2n[nH]c(=O)c3c2CCCC3)ccc1F | 7.68 |
| CNC(=O)c1cccc(Cc2n[nH]c(=O)c3c2CCCC3)n1 | 7.33 |
| O=C(c1cc(Cc2n[nH]c(=O)c3c2NCCC3)ccc1F)N1CCN(S(=O)(=O)c2ccccc2)CC1 | 9.05 |
| CC(Cc1n[nH]c(=O)c2c1CCCC2)c1cccc(C(=O)O)c1 (stereo not shown) | 6.37 |
| CC1(C)SCNC1C(=O)N1CCN(C(=O)c2cc(Cc3n[nH]c(=O)c4c3NCCC4)ccc2F)CC1 (stereo not shown) | 8.80 |
| O=C(c1cnccn1)N1CCN(C(=O)c2cc(Cc3n[nH]c(=O)c4c3CCCC4)ccc2F)CC1 | 8.85 |
| O=C(c1cc(Cc2n[nH]c(=O)c3c2NCCC3)ccc1F)N1CCN(c2ccccc2Cl)CC1 | 8.68 |

Here are 2 compounds. What values of pKi were reported for them?
1. O=C(c1cc(Cc2n[nH]c(=O)c3c2CCCC3)ccc1F)N1CCN(Cc2cccc(Cl)c2)CC1
2. COc1ccc(CCN(C)C(=O)c2cccc(Cc3n[nH]c(=O)c4c3CCCC4)c2)cc1OC

(A)
8.05
7.66
